# Test system: Malme-3M
# ASSAY_PROTOCOL: NCI tumour cell line growth inhibition, 48 h
The source made the active and inactive calls. Cut-off read from the data, not from the text of the source: active = GI50 up to about 1.1 µM and inactive = higher.
MEASUREMENT_TYPE: GI50

Query :: Endpoint output: GI50 of "S=c1ssc2c3ssc(=S)c3n(Cc3ccccc3)c12" . Value?
Result :: > 100 µM (inactive)

Query :: Endpoint output: GI50 of COC(=O)C(/C(=N/N)C(=O)Nc1ccc(C)c(C)c1)c1nc2ccc(Cl)cc2nc1O (stereo not drawn) . Value?
Result :: > 100 µM (inactive)

---

# System: SK-MEL-2
# ASSAY_PROTOCOL: NCI tumour cell line growth inhibition, 48 h
Activity calls are given as the source filed them. Rule as the data show it: active = GI50 up to about 1.1 µM and inactive = higher.
Hello, when you answer, please use one of the following outcomes: yes for active, no for inactive

Answered cases to consult:
>  <COMPOUND>
c1ccc(-n2cnnc2-c2nsc3ccccc23)cc1

>  <TARGET_OR_SYSTEM>
SK-MEL-2

>  <CLASSIFICATION>
no

$$$$
>  <COMPOUND>
CC1=C(/C=C/C(C)=C/C2CC(N(C)C)=CC(=O)O2)C(C)(C)CCC1 (stereo unspecified)

>  <TARGET_OR_SYSTEM>
SK-MEL-2

>  <CLASSIFICATION>
no

$$$$
>  <COMPOUND>
CCOC(=O)C1C(c2ccc(OC)cc2)c2c(n[nH]c2O)CC1(O)OCC (stereo unspecified)

>  <TARGET_OR_SYSTEM>
SK-MEL-2

>  <CLASSIFICATION>
no

$$$$
>  <COMPOUND>
CC1CCC(O)(C(C)(C(=O)O)c2ccccc2)CC1 (stereo unspecified)

>  <TARGET_OR_SYSTEM>
SK-MEL-2

>  <CLASSIFICATION>
no

$$$$
>  <COMPOUND>
O=C(NCc1ccccc1)c1nn[nH]c1O

>  <TARGET_OR_SYSTEM>
SK-MEL-2

>  <CLASSIFICATION>
no

$$$$
>  <COMPOUND>
Cc1ccccc1NC(=O)CC(=O)NNC(Sc1ccccc1)c1cc(/N=N/c2ccc(Br)cc2)ccc1O (stereo unspecified)

>  <TARGET_OR_SYSTEM>
SK-MEL-2

>  <CLASSIFICATION>
no

$$$$
>  <COMPOUND>
Cn1c(=O)c2c(nc(NCCCCl)n2CC(=O)NCCCCl)n(C)c1=O

>  <TARGET_OR_SYSTEM>
SK-MEL-2

>  <CLASSIFICATION>
no

$$$$
>  <COMPOUND>
CCOC(=O)N1c2ccccc2S(=O)(=O)c2ccccc21

>  <TARGET_OR_SYSTEM>
SK-MEL-2

>  <CLASSIFICATION>
no

$$$$

Query :: Could you please tell me the result logged for O=c1[nH]c(=O)n(C2CC(O)C(CO)O2)c2nc3ccc4cc5ccccc5cc4c3nc12 (stereo unspecified) in this assay?
Result :: no
